Taken from ChEMBL document CHEMBL1157623.

- System: Mus musculus
- Test description: Toxicity in ICR mouse xenografted with mouse S180 cells assessed as spleen weight at 1 mg/kg, ip administered 24 hrs after tumor implantation daily for 7 consecutive days measured after 24 hrs of last dose (Rvb=0.22 +/- 0.04 g)
- Type: organism-based, CCRF S-180
- Design: dose 1 mg/kg, route intraperitoneal
- Condition details: in vivo
Recorded metric: Activity (g)
One number for each entry, in g.

Answered examples (3):
> print(dat)
                           smiles.structure  measured
1  CC1(C)N2Cc3[nH]c4ccccc4c3C[C@H]2C(=O)N1[C@@H](CC(=O)OCc1ccccc1)C(=O)OCc1ccccc1      0.24
2  COc1cccc2c1C(=O)c1c(O)c3c(c(O)c1C2=O)C[C@@](O)(C(=O)CO)C[C@@H]3O[C@H]1C[C@H](N)[C@H](O)[C@H](C)O1      0.11
3  CC1(C)N(CC(=O)OCc2ccccc2)C(=O)[C@@H]2Cc3c([nH]c4ccccc34)CN21      0.24

Summary: CC1(C)N2Cc3[nH]c4ccccc4c3C[C@H]2C(=O)N1[C@@H](Cc1ccc(O)cc1)C(=O)OCc1ccccc1 , Mus musculus, Activity = 0.23
